Listed here: items and their measured pIC50.
molecular target: Muscarinic acetylcholine receptor M5 (Rattus norvegicus, UniProt P08911); assay: Negative allosteric modulation of rat muscarinic acetylcholine receptor M5 expressed in CHO cells assessed as inhibition of acetylcholine-induced calcium mobilization incubated for 150 secs prior to acetylcholine induction by Fluo4AM staining-based fluorescence assay; format: functional, cell-based; details: read-out: IC50
Sequence (P08911 whole entry): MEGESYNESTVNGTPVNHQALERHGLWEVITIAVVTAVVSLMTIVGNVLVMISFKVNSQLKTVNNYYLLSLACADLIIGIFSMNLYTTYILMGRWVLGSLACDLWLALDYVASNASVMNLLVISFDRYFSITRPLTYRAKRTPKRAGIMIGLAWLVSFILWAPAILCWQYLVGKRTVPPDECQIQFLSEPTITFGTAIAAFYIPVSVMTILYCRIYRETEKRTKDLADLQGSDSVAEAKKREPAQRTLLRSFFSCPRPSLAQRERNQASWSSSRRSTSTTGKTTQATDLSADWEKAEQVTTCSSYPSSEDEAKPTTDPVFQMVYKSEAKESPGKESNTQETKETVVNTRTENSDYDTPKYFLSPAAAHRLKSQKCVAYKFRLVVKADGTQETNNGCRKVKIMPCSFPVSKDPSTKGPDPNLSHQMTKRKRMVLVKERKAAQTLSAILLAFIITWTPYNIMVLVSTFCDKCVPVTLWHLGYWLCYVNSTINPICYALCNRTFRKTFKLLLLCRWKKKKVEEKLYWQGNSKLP
Convention used: pIC50 is expressed as -log10 of the molar concentration.

**Query** Kindly state the measured pIC50 obtained for COc1ccc(C23c4ccccc4C(=O)N2CCN3C(=O)c2cc(F)c(F)c(F)c2)cc1C (racemic) with Muscarinic acetylcholine receptor M5 (Rattus norvegicus, UniProt P08911).
**Result** 6.02

**Query** What do you have for "COc1ccc([C@@]23c4ccccc4C(=O)N2CCN3C(=O)c2cc(F)c(F)c(F)c2)cc1C" ?
**Result** 6.29

---

molecular target: UniProtKB P08912; experiment: Negative allosteric modulation of human muscarinic acetylcholine receptor M5 expressed in CHO cells assessed as inhibition of acetylcholine-induced calcium mobilization incubated for 150 secs prior to acetylcholine induction by Fluo4AM staining-based fluorescence assay
ENDPOINT NAME: pIC50
pIC50 (log units): -log10 of the concentration in mol/L.

Example cases with answers are listed next.
COMPOUND	pIC50
COc1cc(C23c4ccccc4C(=O)N2CCN3C(=O)c2ccc(F)c(F)c2)ccc1F (racemic)	5.57
COc1ccc([C@@]23c4ccccc4C(=O)N2CCN3C(=O)c2cc(F)c(F)c(F)c2)cc1C	6.58
COc1cccc(C23c4ccccc4C(=O)N2CCN3C(=O)c2ccc(F)c(F)c2)c1 (racemic)	5.80
COc1cc(C23c4ccccc4C(=O)N2CCN3C(=O)c2cc(F)c(F)c(F)c2)ccc1C (racemic)	6.05
CCOc1ccc(C(=O)N2CCN3C(=O)c4ccccc4C23c2ccc(Cl)cc2)cc1 (racemic)	6.07
COc1cc(C23c4ccccc4C(=O)N2CCN3C(=O)c2ccc(F)c(F)c2)ccc1Cl (racemic)	5.70
COc1cc(C23c4ccccc4C(=O)N2CCN3C(=O)c2cc(F)c(F)c(F)c2)ccc1Cl (racemic)	5.80
O=C(c1cc(F)c(F)c(F)c1)N1CCN2C(=O)c3ccccc3C12c1ccc2c(c1)OCO2 (racemic)	6.00
COc1ccc(C23c4ccccc4C(=O)N2CCN3C(=O)c2cc(F)c(F)c(F)c2)cc1Cl (racemic)	5.85
COc1cc(C23c4ccccc4C(=O)N2CCN3C(=O)c2ccc(OC(C)C)cc2)ccc1C (racemic)	5.66

**Query** So what does the record say about pIC50 for COc1ccc(C(=O)N2CCN3C(=O)c4ccccc4C23c2ccc(Cl)cc2)cc1 (racemic) ?
**Result** 5.74

**Query** Record: COc1ccc(C23c4ccccc4C(=O)N2CCN3C(=O)c2ccc(OC(C)C)cc2)cc1F (racemic)
**Result** 5.49

**Query** Then this compound: CC(C)Oc1ccc(C(=O)N2CCN3C(=O)c4ccccc4C23c2ccc3c(c2)OCO3)cc1 (racemic)
**Result** 5.96

---

assay: Fraction unbound in Sprague-Dawley rat brain; format: ADME, tissue-based; details: brain tissue
ENDPOINT NAME: fraction unbound
No unit in the answer, please; the number alone is enough.

**Query** Would you kindly share the measured fraction unbound for "COc1ccc([C@@]23c4ccccc4C(=O)N2CCN3C(=O)c2cc(F)c(F)c(F)c2)cc1C" ?
**Result** 0.006

---

assay: Cmax in Sprague-Dawley rat in brain at 10 mg/kg, po pretreated with 56.6 mg/kg, po 1-aminobenzotriazole; format: ADME, organism-based; set-up: dose 10 mg/kg, route oral
ENDPOINT NAME: Cmax (µM)
Report the value in µM with no unit label.

**Query** Name the reported Cmax value associated with the compound "COc1ccc([C@@]23c4ccccc4C(=O)N2CCN3C(=O)c2cc(F)c(F)c(F)c2)cc1C"
**Result** 5.4

---

experiment: Mean residence time in Sprague-Dawley rat at 10 mg/kg, po; assay type: ADME, organism-based; parameters: dose 10 mg/kg, route oral; settings: in vivo
ENDPOINT NAME: MRT (h)
Dear colleague, please return just the value in h, with no unit written.

**Query** Look up MRT: "COc1ccc([C@@]23c4ccccc4C(=O)N2CCN3C(=O)c2cc(F)c(F)c(F)c2)cc1C"
**Result** 6.5

---

assay: Intrinsic clearance in rat hepatocytes; format: ADME, cell-based, Hepatocyte; conditions: read-out: CLH
ENDPOINT NAME: CLint scaled (mL/min/kg)
Your answer is read as mL/min/kg, so omit the unit and give the number.

SMILES INPUT	CLint scaled (mL/min/kg)
[2H]C([2H])([2H])Oc1ccc([C@@]23c4ccccc4C(=O)N2CCN3C(=O)c2cc(F)c(F)c(F)c2)cc1C	55.8

**Query** Form field: reported CLint scaled of "COc1ccc([C@@]23c4ccccc4C(=O)N2CCN3C(=O)c2cc(F)c(F)c(F)c2)cc1C"
**Result** 57.8

---

This section presents compounds with their documented CLint scaled values.
assay: Intrinsic clearance in human hepatocytes; type: ADME, cell-based, Hepatocyte; settings: read-out: CLH
The figure you give is taken to be in mL/min/kg; do not add the unit.

SMILES INPUT	MEASURE UNIT	CLint scaled
COc1ccc([C@@]23c4ccccc4C(=O)N2CCN3C(=O)c2cc(F)c(F)c(F)c2)cc1C	mL/min/kg	19.8

Okay, now this compound:
**Query** Quick one: CLint scaled for "[2H]C([2H])([2H])Oc1ccc([C@@]23c4ccccc4C(=O)N2CCN3C(=O)c2cc(F)c(F)c(F)c2)cc1C" ?
**Result** 16.3

---

biological target: Muscarinic acetylcholine receptor M5 (Homo sapiens, UniProt P08912); experiment: Negative allosteric modulation of human muscarinic acetylcholine receptor M5 expressed in CHO cells assessed as inhibition of acetylcholine-induced calcium mobilization incubated for 150 secs prior to acetylcholine induction by Fluo4AM staining-based fluorescence assay
Sequence (P08912 whole entry): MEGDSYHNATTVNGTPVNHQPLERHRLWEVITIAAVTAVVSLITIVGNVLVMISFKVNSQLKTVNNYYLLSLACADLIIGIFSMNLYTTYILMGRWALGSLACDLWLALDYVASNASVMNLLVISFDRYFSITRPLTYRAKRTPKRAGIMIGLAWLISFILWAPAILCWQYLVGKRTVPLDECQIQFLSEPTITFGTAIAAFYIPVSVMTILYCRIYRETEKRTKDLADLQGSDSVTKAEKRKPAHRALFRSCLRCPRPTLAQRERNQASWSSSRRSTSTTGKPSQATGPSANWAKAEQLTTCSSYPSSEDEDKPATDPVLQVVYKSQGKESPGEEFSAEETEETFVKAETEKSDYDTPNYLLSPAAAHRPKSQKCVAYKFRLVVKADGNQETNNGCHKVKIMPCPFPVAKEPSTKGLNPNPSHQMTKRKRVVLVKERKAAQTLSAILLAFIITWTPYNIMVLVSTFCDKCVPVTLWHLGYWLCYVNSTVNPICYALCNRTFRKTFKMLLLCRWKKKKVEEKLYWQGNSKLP
ENDPOINT NAME: pIC50
Would you please state pIC50, meaning minus log10 of the concentration in mol/L, as a bare number?

COMPOUND	pIC50
COc1ccc(C23c4ccccc4C(=O)N2CCN3C(=O)c2ccc(F)c(F)c2)cc1 (racemic)	5.89

Please examine the following record next.
**Query** Need pIC50, item COc1ccc(C23c4ccccc4C(=O)N2CCN3C(=O)c2ccc(F)c(F)c2)cc1Cl (racemic)
**Result** 5.26

---

experiment: Intrinsic clearance in rat liver microsomes; format: ADME; conditions: read-out: CLH
ENDPOINT NAME: CLint scaled
Give me the value, and tack the unit on after it.

SMILES INPUT	RECORDED MEASUREMENT
[2H]C([2H])([2H])Oc1ccc([C@@]23c4ccccc4C(=O)N2CCN3C(=O)c2cc(F)c(F)c(F)c2)cc1C	275 mL/min/kg

Shifting focus to the compound that follows.
**Query** Dear colleague, I am looking for the recorded CLint scaled of the following compound: "COc1ccc([C@@]23c4ccccc4C(=O)N2CCN3C(=O)c2cc(F)c(F)c(F)c2)cc1C"
**Result** 332 mL/min/kg

---

test: Oral bioavailability in Sprague-Dawley rat at 10 mg/kg pretreated with 56.6 mg/kg, po 1-aminobenzotriazole; type: ADME, organism-based; details: in vivo
ENDPOINT NAME: bioavailability (%)
Write it as a number; the unit % goes unstated.

**Query** // bioavailability lookup, key: "COc1ccc([C@@]23c4ccccc4C(=O)N2CCN3C(=O)c2cc(F)c(F)c(F)c2)cc1C"
**Result** 9.5

---

experiment: Intrinsic clearance in human liver microsomes; format: ADME; conditions: read-out: CLH
ENDPOINT NAME: CLint scaled (mL/min/kg)
The answer is to be given in mL/min/kg; state only the numeric part.

**Query** Looking for the measured CLint scaled of "COc1ccc([C@@]23c4ccccc4C(=O)N2CCN3C(=O)c2cc(F)c(F)c(F)c2)cc1C" , can you help?
**Result** 359

---

Measured IC50 accompanies every entry in the list below.
target: Muscarinic acetylcholine receptor M5 (Homo sapiens); assay: Negative allosteric modulation of human muscarinic acetylcholine receptor M5 expressed in CHO cells assessed as inhibition of acetylcholine-induced calcium mobilization incubated for 150 secs prior to acetylcholine induction by Fluo4AM staining-based fluorescence assay

Below are worked cases with known answers.
COMPOUND	RECORDED MEASUREMENT
O=C(c1cc(F)nc(F)c1)N1CCN2C(=O)c3ccccc3C12c1ccc(Cl)cc1 (racemic)	> 10 µM
COc1cc(C23c4ccccc4C(=O)N2CCN3C(=O)c2ccc(OC(C)C)cc2)ccc1Cl (racemic)	6.4 µM

**Query** Recorded IC50 of COc1ccc(C23c4ccccc4C(=O)N2CCN3C(=O)c2ccc(OC(C)C)cc2)cc1C (racemic) , please.
**Result** 1.3 µM

**Query** Same question, COc1cc(C23c4ccccc4C(=O)N2CCN3C(=O)c2cc(F)c(F)c(F)c2)ccc1F (racemic) this time
**Result** 0.7 µM

**Query** Likewise for O=C(c1ccnc(F)c1)N1CCN2C(=O)c3ccccc3C12c1ccc(Cl)cc1 (racemic) ?
**Result** 5.8 µM

**Query** Try this compound too: O=C(c1ccc(F)c(F)c1)N1CCN2C(=O)c3ccccc3C12C1CCCCC1 (racemic)
**Result** 2.1 µM

**Query** Item: COc1ccc(C23c4ccccc4C(=O)N2CCN3C(=O)c2ccc(OC(C)C)cc2)cc1Cl (racemic)
**Result** 3.3 µM

**Query** And then COc1ccc(C23c4ccccc4C(=O)N2CCN3C(=O)c2cc(F)c(F)c(F)c2)cc1C (racemic) , what is it?
**Result** 0.51 µM

**Query** Now the compound CCOc1ccc(C23c4ccccc4C(=O)N2CCN3C(=O)c2ccc(F)c(F)c2)cc1 (racemic)
**Result** 3.2 µM
